Test: Chromatographic Hydrophobicity Index (CHI) and log PCHI determination
Assay type: physicochemical
Conditions: reverse phase HPLC; Table 3; read-out: logPCHI
MEASUREMENT_NAME: chromatographic logP
Reply briefly: the number, and no unit.

Q) Consider the compound O=C(c1ccc(F)cc1)N1CCN(C(=O)c2cc(Cc3n[nH]c(=O)c4ccccc34)ccc2F)CC1 [c-2 (^19F)] and give its measured chromatographic logP.
A) 2.15

###

Target: PARP1 (Homo sapiens, UniProt P09874)
Construct: purchased Trevigen
Sequence (P09874 whole entry, species assumed): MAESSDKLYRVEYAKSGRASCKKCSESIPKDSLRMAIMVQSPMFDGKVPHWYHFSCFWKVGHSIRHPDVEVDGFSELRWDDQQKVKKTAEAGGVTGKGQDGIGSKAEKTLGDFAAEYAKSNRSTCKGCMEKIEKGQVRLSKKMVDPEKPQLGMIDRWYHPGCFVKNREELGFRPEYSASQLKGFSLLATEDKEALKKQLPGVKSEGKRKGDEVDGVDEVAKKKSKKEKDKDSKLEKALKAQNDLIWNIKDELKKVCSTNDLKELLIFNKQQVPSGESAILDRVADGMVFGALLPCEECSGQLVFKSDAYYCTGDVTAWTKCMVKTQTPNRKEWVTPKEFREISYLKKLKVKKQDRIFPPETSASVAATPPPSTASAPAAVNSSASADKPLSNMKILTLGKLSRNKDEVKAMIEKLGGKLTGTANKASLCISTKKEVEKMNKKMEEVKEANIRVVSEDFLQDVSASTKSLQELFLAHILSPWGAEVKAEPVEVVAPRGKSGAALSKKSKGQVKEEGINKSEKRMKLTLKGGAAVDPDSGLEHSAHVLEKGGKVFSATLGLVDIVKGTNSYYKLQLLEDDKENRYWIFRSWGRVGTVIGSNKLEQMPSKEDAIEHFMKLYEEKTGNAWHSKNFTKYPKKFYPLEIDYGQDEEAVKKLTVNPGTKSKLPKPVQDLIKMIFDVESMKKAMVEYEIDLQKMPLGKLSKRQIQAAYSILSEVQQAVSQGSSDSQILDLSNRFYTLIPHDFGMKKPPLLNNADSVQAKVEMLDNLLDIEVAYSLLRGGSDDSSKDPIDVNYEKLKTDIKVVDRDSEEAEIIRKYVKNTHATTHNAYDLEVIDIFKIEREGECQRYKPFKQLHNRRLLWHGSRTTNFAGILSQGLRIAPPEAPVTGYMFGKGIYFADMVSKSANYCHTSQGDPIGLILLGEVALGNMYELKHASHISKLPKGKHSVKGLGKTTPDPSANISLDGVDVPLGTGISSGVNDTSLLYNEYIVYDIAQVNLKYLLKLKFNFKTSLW
Test: IC50 determination, Universal PARP Colorimetric Assay Kit
Assay type: biochemical
Conditions: Table 2, measured against PARP1
Can you tell me pIC50 for the items I'm about to list?
Scale: pIC50 equals -log10([C]), with [C] in mol/L.

Q) I'd like to know its pIC50. The molecule in question is O=C(CCc1cccc(I)c1)N1CCN(C(=O)c2cc(Cc3n[nH]c(=O)c4ccccc34)ccc2F)CC1 [c-5 (^127I)]
A) 6.97

Q) Consider the molecule O=C(CCc1ccc(I)cc1)N1CCN(C(=O)c2cc(Cc3n[nH]c(=O)c4ccccc34)ccc2F)CC1 [c-6 (^127I)] and give its measured pIC50.
A) 7.33

Q) Recorded pIC50 for O=C(Cc1ccc(I)cc1)N1CCN(C(=O)c2cc(Cc3n[nH]c(=O)c4ccccc34)ccc2F)CC1 [c-4 (^127I)] , please?
A) 7.13

Q) Given O=C(Cc1cccc(I)c1)N1CCN(C(=O)c2cc(Cc3n[nH]c(=O)c4ccccc34)ccc2F)CC1 [c-3 (^127I)] , state its recorded pIC50.
A) 7.47

Ref: patent US10512700B2
